Numbers sourced from patent US20120220581A1.

# IC50 per entry
biological target: other members of the PDE family (Homo sapiens); assay: In vitro PDE selectivity assay (SPA), other members of the PDE family (protocols in Table A); format: biochemical; conditions: hPDE7A1; read-out: PDE 7A (expressed as pIC50) (converted)
Sequence (Q13946 whole entry): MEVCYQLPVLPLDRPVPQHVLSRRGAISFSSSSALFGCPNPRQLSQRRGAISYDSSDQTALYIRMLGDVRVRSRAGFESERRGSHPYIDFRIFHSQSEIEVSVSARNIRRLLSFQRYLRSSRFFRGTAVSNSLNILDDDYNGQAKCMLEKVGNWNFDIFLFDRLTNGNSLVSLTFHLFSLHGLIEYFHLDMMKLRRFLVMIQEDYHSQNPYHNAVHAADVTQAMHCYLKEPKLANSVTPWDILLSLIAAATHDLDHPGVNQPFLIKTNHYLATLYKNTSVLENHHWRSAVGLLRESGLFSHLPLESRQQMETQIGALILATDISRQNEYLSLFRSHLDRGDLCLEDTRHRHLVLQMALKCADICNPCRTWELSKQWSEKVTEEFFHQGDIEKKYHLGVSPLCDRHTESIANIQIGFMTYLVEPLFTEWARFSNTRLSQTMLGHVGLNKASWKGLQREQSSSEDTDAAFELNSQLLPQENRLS
value.type: IC50

>  <molecule>
COCCn1cc(-c2c(C)nc3c(N4CCOCC4)cc(C)nn23)cn1

>  <result>
> 10 µM

$$$$
>  <molecule>
Cc1nc2c(N3CCOCC3)ccnn2c1-c1ccc(N2CCOCC2)nc1

>  <result>
> 10 µM

$$$$
>  <molecule>
Cc1nc2c(N3CCOCC3)ccnn2c1-c1cnn(CC2CC2(F)F)c1 (stereo not shown)

>  <result>
> 10 µM

$$$$
>  <molecule>
COCCn1cc(-c2c(C)nc3c(-c4ccncc4)cc(C)nn23)cn1

>  <result>
4.9 µM

$$$$
>  <molecule>
COCCc1ccc(-c2c(C)nc3c(N4CCOCC4)ccnn23)cn1

>  <result>
69.2 µM

$$$$
>  <molecule>
COC(C)(C)Cn1cc(-c2c(C3CC3)nc3c(-c4ccncc4)ccnn23)cn1

>  <result>
5.89 µM

$$$$
>  <molecule>
COC(C)(C)Cc1ccc(-c2c(C)nc3c(N4CCOCC4)ccnn23)cn1

>  <result>
> 10 µM

$$$$
>  <molecule>
COC(C)(C)CCc1ccc(-c2c(C)nc3c(N4CCOCC4)ccnn23)cn1

>  <result>
> 10 µM

$$$$
>  <molecule>
Cc1nc2c(N3CCOCC3)ccnn2c1-c1cnn(CC(C)C)c1

>  <result>
> 10 µM

$$$$
>  <molecule>
CCc1nc2c(N3CCOCC3)ccnn2c1-c1cnn(CCOC)c1

>  <result>
> 10 µM

$$$$
>  <molecule>
COCCOc1ccc(-c2c(C)nc3c(N4CCOCC4)ccnn23)cn1

>  <result>
> 10 µM

$$$$
>  <molecule>
Cc1nc2c(N3CCOCC3)ccnn2c1-c1ccc(C2CC2)nc1

>  <result>
> 10 µM

$$$$
>  <molecule>
Cc1nc2c(-c3ccncc3)ccnn2c1-c1cnn(CC(F)(F)F)c1

>  <result>
> 10 µM

$$$$
>  <molecule>
COC(C)(C)Cn1cc(-c2c(C)nc3c(N4CCOCC4)ccnn23)cn1

>  <result>
45.7 µM

$$$$
>  <molecule>
COCCOc1ccc(-c2c(C)nc3c(-c4ccncc4)ccnn23)cn1

>  <result>
> 50.1 µM

$$$$
>  <molecule>
c1cc(-c2ccnn3c(-c4ccc(N5CCOCC5)nc4)cnc23)ccn1

>  <result>
> 10 µM

$$$$
>  <molecule>
Cc1nc2c(N3CCOCC3)ccnn2c1-c1cnn(C2CCOCC2)c1

>  <result>
> 10 µM

$$$$
>  <molecule>
CO[C@@H](C)Cn1cc(-c2c(C)nc3c(N4CCOCC4)ccnn23)cn1

>  <result>
> 10 µM

$$$$
>  <molecule>
Cc1nc2c(N3CCOCC3)ccnn2c1-c1ccc(C(C)C)nc1

>  <result>
> 10 µM

$$$$

---

# IC50 per entry
Biological target: Rat recombinant PDE10A (rPDE10A2) (Rattus norvegicus)
Construct: inferred from the Ni metal chelate purification; made in house; host or cells: Sf9 insect cells (baculovirus)
Sequence (Q9QYJ6 1-794): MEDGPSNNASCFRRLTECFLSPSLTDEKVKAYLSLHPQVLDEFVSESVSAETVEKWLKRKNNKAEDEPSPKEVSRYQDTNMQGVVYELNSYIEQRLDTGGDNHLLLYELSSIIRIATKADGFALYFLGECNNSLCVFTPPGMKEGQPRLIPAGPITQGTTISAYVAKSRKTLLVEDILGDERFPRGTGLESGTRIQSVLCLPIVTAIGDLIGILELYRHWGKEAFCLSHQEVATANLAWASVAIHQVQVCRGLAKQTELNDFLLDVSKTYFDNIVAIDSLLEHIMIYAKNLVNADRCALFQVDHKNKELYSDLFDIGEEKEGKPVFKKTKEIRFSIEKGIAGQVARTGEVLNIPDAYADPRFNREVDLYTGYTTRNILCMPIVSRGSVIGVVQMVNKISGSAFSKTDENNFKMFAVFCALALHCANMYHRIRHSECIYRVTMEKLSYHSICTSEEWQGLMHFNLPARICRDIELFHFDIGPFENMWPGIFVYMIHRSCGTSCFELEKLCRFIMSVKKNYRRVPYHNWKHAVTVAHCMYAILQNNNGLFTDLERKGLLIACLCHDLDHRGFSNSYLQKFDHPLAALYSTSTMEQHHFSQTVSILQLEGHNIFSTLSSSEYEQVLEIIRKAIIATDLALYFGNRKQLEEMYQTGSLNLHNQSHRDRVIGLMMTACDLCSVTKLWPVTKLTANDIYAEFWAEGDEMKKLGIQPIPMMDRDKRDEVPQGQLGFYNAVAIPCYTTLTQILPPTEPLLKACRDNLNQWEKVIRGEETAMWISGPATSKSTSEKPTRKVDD
Assay: In vitro assay PDE10A (SPA, 3H-cAMP)
Assay type: biochemical
Conditions: Table 4 in vitro selectivity; read-out: PDE 10A2 (expressed as pIC50) (converted)
Protocol: Rat recombinant PDE10A (rPDE10A2) was expressed in Sf9 cells using a recombinant rPDE10A baculovirus construct. Cells were harvested after 48 h of infection and the rPDE10A protein was purified by metal chelate chromatography on Ni-sepharose 6FF. […] After sedimentation of the beads during 30 minutes the radioactivity was measured in a Perkin Elmer Topcount scintillation counter and results were expressed as cpm. […]

>  <molecule>
CCc1ccc(-c2c(C)nc3c(N4CCOCC4)ccnn23)cn1

>  <target.of.assay>
Rat recombinant PDE10A (rPDE10A2) (Rattus norvegicus)

>  <IC50, nM>
83.2

$$$$
>  <molecule>
Cc1nc2c(N3CCOCC3)ccnn2c1-c1cnn(CC2CC2(F)F)c1 (stereo not drawn)

>  <target.of.assay>
Rat recombinant PDE10A (rPDE10A2) (Rattus norvegicus)

>  <IC50, nM>
50.1

$$$$
>  <molecule>
c1cc(-c2ccnn3c(-c4ccc(N5CCOCC5)nc4)cnc23)ccn1

>  <target.of.assay>
Rat recombinant PDE10A (rPDE10A2) (Rattus norvegicus)

>  <IC50, nM>
339

$$$$
>  <molecule>
c1cc(N2CCOCC2)c2ncc(-c3ccc(N4CCOCC4)nc3)n2n1

>  <target.of.assay>
Rat recombinant PDE10A (rPDE10A2) (Rattus norvegicus)

>  <IC50, nM>
324

$$$$
>  <molecule>
COCCn1cc(-c2c(C)nc3c(N4CCOCC4)cc(C)nn23)cn1

>  <target.of.assay>
Rat recombinant PDE10A (rPDE10A2) (Rattus norvegicus)

>  <IC50, nM>
95.5

$$$$
>  <molecule>
COCCc1ccc(-c2c(C3CC3)nc3c(-c4ccncc4)ccnn23)cn1

>  <target.of.assay>
Rat recombinant PDE10A (rPDE10A2) (Rattus norvegicus)

>  <IC50, nM>
11.5

$$$$
>  <molecule>
Cc1cc(N2CCOCC2)c2nc(C3CC3)c(-c3ccc(N4CCNCC4)nc3)n2n1

>  <target.of.assay>
Rat recombinant PDE10A (rPDE10A2) (Rattus norvegicus)

>  <IC50, nM>
724

$$$$
>  <molecule>
COC(C)(C)CCc1ccc(-c2c(C)nc3c(N4CCOCC4)ccnn23)cn1

>  <target.of.assay>
Rat recombinant PDE10A (rPDE10A2) (Rattus norvegicus)

>  <IC50, nM>
43.7

$$$$
>  <molecule>
COCCc1ccc(-c2cnc3c(-c4ccncc4)ccnn23)cn1

>  <target.of.assay>
Rat recombinant PDE10A (rPDE10A2) (Rattus norvegicus)

>  <IC50, nM>
427

$$$$
